- EXPERIMENT_DESCRIPTION: A quantitative high throughput screen for small molecules that induce DNA re-replication in SW480 colon adenocarcinoma cells. Note: nearly all actives have a fitted effect of over 55% in size.
- RUN_PARAMETERS: Hoechst DNA content imaging, 48 h; series mostly up to 46.1 µM
- Source text: H Molecular Libraries Probe Production Network [MLPCN] NIH Chemical Genomics Center [NCGC] […] To identify compounds that induce re-replication in normal cells, an image-based assay was used to measure DNA content of nuclei, as detected by the fluorescent DNA binding dye, Hoechst. Cell nuclei were imaged by a fluorescence scanning plate imager and compounds that induce DNA re-replication were identified by the increase of nuclei with elevated fluorescence intensity […]
The whole screen tested about 340,000 compounds, of which about 6,200 (1.8%) were called active. Roughly 10% stayed inconclusive and do not appear here. Calls come from the whole dose curve; as a rule, active = well fitted activation curve with a large enough effect; inconclusive = small, poorly fitted or top-dose-only effect; inactive = no such curve, though single readings can be large or run the other way. The full list was thinned out, with actives kept by preference.
Select the matching outcome among t = active, f = inactive

Exercise: // param item: CC1CN(C(=O)c2ccc([N+](=O)[O-])s2)CC(C)O1 (stereo not drawn) ; yields the recorded call
Key: f

Exercise: Please answer likewise for "COc1cc(OC)c(C(=O)NNC(=O)c2ccc(NS(=O)(=O)c3cccs3)cc2)cc1OC"
Key: f

Exercise: Please answer likewise for "O=C(Oc1ccc(Br)cc1)c1cccnc1"
Key: f

Exercise: Please answer likewise for "CN1CCN(S(=O)(=O)c2ccc(NC(=S)NC(=O)C3CC3)cc2)CC1"
Key: f

Exercise: Please answer likewise for "O=C(Nc1ccc2nc3n(c(=O)c2c1)CCCC3)c1ccc(Cl)nc1"
Key: f

Exercise: Please answer likewise for "O=S(=O)(NCc1ccc(Cl)cc1Cl)c1cccs1"
Key: f

Exercise: Please answer likewise for "O=C(NNC(=O)c1ccc(Cl)nc1)c1ccc(Br)cc1"
Key: f

Exercise: Please answer likewise for "CCCn1c(=O)c(-c2ccccc2)c(O)c2ccccc21"
Key: f

Exercise: Please answer likewise for "c1ccc(-n2nnnc2NC2CCCCCC2)cc1"
Key: t

Exercise: Please answer likewise for "Cc1cc(C)nc(N2CCC(C(=O)Nc3ccc4c(c3)OCCO4)CC2)n1"
Key: f

Exercise: Please answer likewise for "Cc1ccc(CN(C)CC(=O)Nc2cccc([N+](=O)[O-])c2)o1"
Key: f

Exercise: Please answer likewise for "NC(=O)c1ccc(N2CCCC2)nc1"
Key: f

Exercise: Please answer likewise for "Cc1nnc(Sc2nc3c(c(=O)[nH]c(=O)n3C)n2Cc2ccccc2)s1"
Key: f

Exercise: Please answer likewise for "C=CCn1c(SCc2ccccc2)nc2c1c(=O)[nH]c(=O)n2C"
Key: f

Exercise: Please answer likewise for "COc1cc(/C=C/CNC[C@H]2O[C@@H](n3cnc(C(N)=O)n3)[C@H](O)[C@@H]2O)ccc1O"
Key: f

Exercise: Please answer likewise for "CC(C)Cn1cnc2c(SCc3ccc(Cl)cc3)nc(N)nc21"
Key: f

Exercise: Please answer likewise for "CC(=O)c1ccc2c(c1)c1ccccc1n2CC(C)C"
Key: f

Exercise: Please answer likewise for "c1ccc(-n2nnnc2N2CCOCC2)cc1"
Key: f

Exercise: Please answer likewise for "Fc1ccccc1CCNc1nnnn1-c1ccccc1"
Key: f

Exercise: Please answer likewise for "C=CCSc1nc2c(c(=O)[nH]c(=O)n2C)n1Cc1ccccc1"
Key: t

Exercise: Please answer likewise for "Cc1ccc(S(=O)(=O)N(CC(=O)Nc2cccc([N+](=O)[O-])c2)Cc2ccc(Cl)cc2)cc1"
Key: t

Exercise: Please answer likewise for "CC(C)n1cnc2c(NCc3ccccc3)cc(OCC3CCN(C)CC3)cc21"
Key: f

Exercise: Please answer likewise for CCCCN(CCCC)CC(O)Cn1c2ccccc2c(=O)c2ccccc21 (stereo not drawn)
Key: t

###

- EXPERIMENT_DESCRIPTION: A quantitative high throughput screen for small molecules that induce DNA re-replication in SW480 colon adenocarcinoma cells. Note: nearly all actives have a fitted effect of over 55% in size.
- RUN_PARAMETERS: Hoechst DNA content imaging, 48 h; series mostly up to 46.1 µM
In all, about 340,000 compounds went through this assay and about 6,200 (1.8%) were called active. Not shown: some 10% with an inconclusive outcome. Calls follow the shape of the dose curve; as a rule, active = well fitted activation curve with a large enough effect; inconclusive = small, poorly fitted or top-dose-only effect; inactive = no such curve, though single readings can be large or run the other way. The full list was thinned out, with actives kept by preference.
Select the matching outcome among active, inactive

Exercise: // param item: "COc1ccc(CN2CCC(n3nccc3NC(=O)CCCc3ccccc3)CC2)cc1C" ; yields the recorded call
Key: active

Exercise: Please answer likewise for "CNc1nc(-c2ccccc2)cc(-c2ccccc2)n1"
Key: inactive

Exercise: Please answer likewise for "O=C(NNC(=O)C1CCCC1)c1ccc(F)cc1"
Key: inactive

Exercise: Please answer likewise for "Cc1ccc(S(=O)(=O)N2CCN(C(=O)c3cc(S(=O)(=O)N4CCOCC4)ccc3F)CC2)cc1"
Key: inactive

Exercise: Please answer likewise for COc1cc(OC)cc(C(=O)NCC(=O)OCC(=O)NC(C)CCc2ccccc2)c1 (stereo not given)
Key: inactive

Exercise: Please answer likewise for "CCOc1ccc(-n2c(SCC(=O)Nc3cc(C(=O)O)ccc3Cl)nc3ccccc3c2=O)cc1"
Key: inactive

Exercise: Please answer likewise for "Cc1ccc(CN2CCC(n3nccc3NC(=O)CCCc3ccccc3)CC2)o1"
Key: inactive

Exercise: Please answer likewise for "COc1cc(CN2CCC(n3nccc3NC(=O)CCCc3ccccc3)CC2)ccc1O"
Key: inactive

Exercise: Please answer likewise for "O=C(NCCC(=O)N1O[C@@H]2C=C[C@H]1C2)OCC1c2ccccc2-c2ccccc21"
Key: inactive

Exercise: Please answer likewise for "Cc1ccc(S(=O)(=O)NCC(=O)NNC(=O)c2ccc(Br)cc2)cc1C"
Key: inactive

###

- EXPERIMENT_DESCRIPTION: A quantitative high throughput screen for small molecules that induce DNA re-replication in SW480 colon adenocarcinoma cells. Note: nearly all actives have a fitted effect of over 55% in size.
- RUN_PARAMETERS: Hoechst DNA content imaging, 48 h; series mostly up to 46.1 µM
Out of some 340,000 compounds screened, about 6,200 (1.8%) were called active. Another 10% or so got no clear call; they are omitted. Calls come from the whole dose curve; as a rule, active = well fitted activation curve with a large enough effect; inconclusive = small, poorly fitted or top-dose-only effect; inactive = no such curve, though single readings can be large or run the other way. This is one part of a sample in which actives are shown more often than they occur.
Select the matching outcome among t for active, f for inactive

Exercise: // param item: "Cc1cc(C(=O)OCC(=O)NCc2ccco2)c(C)n1-c1ccccc1" ; yields the recorded call
Key: t

Exercise: Please answer likewise for "O=C(COC(=O)Cc1ccc([N+](=O)[O-])cc1)NC1CCCCCC1"
Key: f

Exercise: Please answer likewise for CC(NC(=O)C(=O)N/N=C/c1ccc(Cl)cc1)c1ccccc1 (stereo not given)
Key: f

Exercise: Please answer likewise for "Cc1ccc(S(=O)(=O)Nc2ccc(F)c(S(=O)(=O)N3CCOCC3)c2)cc1"
Key: f

Exercise: Please answer likewise for "CN(c1ccccc1)S(=O)(=O)c1ccc(Cl)c(C(=O)OCC(=O)NCc2ccco2)c1"
Key: f

Exercise: Please answer likewise for "CCN(CC)c1ccc(C(=O)N/N=C/c2ccc(N3CCOCC3)cc2)cc1"
Key: t

Exercise: Please answer likewise for "O=C(COC(=O)c1ccccc1O)NCc1ccco1"
Key: f

Exercise: Please answer likewise for "OCC1(CCOc2ccccc2)CCN(Cc2cn[nH]c2-c2ccccc2)CC1"
Key: f

Exercise: Please answer likewise for Oc1ccccc1C=NC1CCCCC1N=Cc1ccccc1O (stereo not given)
Key: f

Exercise: Please answer likewise for "Cc1cc(C(=O)N/N=C/c2ccc(N3CCOCC3)cc2)c(C)o1"
Key: f

Exercise: Please answer likewise for CC(NC(=O)C(=O)NN=C1CCC(C(C)(C)C)CC1)c1ccccc1 (stereo not given)
Key: t

Exercise: Please answer likewise for "N#Cc1cc([N+](=O)[O-])ccc1NC(=O)COC(=O)c1cnccn1"
Key: f

Exercise: Please answer likewise for "COc1cccc(N2CCN(CC(=O)Nc3ccnn3C3CCCC3)CC2)c1"
Key: f

Exercise: Please answer likewise for CC(C)(C)C1CCC(=NNC(=O)c2cc(-c3ccccc3)n[nH]2)CC1 (stereo not given)
Key: f

Exercise: Please answer likewise for "Cc1noc(C)c1NC(=O)Nc1ccc2c(c1)C(=O)N([C@H](C)CO)C[C@H](C)[C@@H](CN(C)S(=O)(=O)c1cn(C)cn1)O2"
Key: f

###

- EXPERIMENT_DESCRIPTION: A quantitative high throughput screen for small molecules that induce DNA re-replication in SW480 colon adenocarcinoma cells. Note: nearly all actives have a fitted effect of over 55% in size.
- RUN_PARAMETERS: Hoechst DNA content imaging, 48 h; series mostly up to 46.1 µM
Screen size: about 340,000 compounds; about 6,200 (1.8%) were called active. Inconclusive results (about 10%) are left out. Calls come from the whole dose curve; as a rule, active = well fitted activation curve with a large enough effect; inconclusive = small, poorly fitted or top-dose-only effect; inactive = no such curve, though single readings can be large or run the other way. The list comes from a sample in which actives are over-represented; it also holds close analogues and randomly drawn compounds.
Select the matching outcome among yes (active), no (inactive)

Exercise: // param item: "CN(C)S(=O)(=O)c1cccc(NC(=S)NCc2ccc3c(c2)OCO3)c1" ; yields the recorded call
Key: no

Exercise: Please answer likewise for CSCCC(NC(=O)c1ccccc1)C(=O)N1CCN(Cc2ccc(Cl)cc2)CC1 (stereo not drawn)
Key: no

Exercise: Please answer likewise for "COc1ccc(C(=O)CSc2nc(C)cc(C)n2)cc1[N+](=O)[O-]"
Key: no

Exercise: Please answer likewise for "NC(=O)C1(Nc2ccccc2Cl)CCCC1"
Key: no

Exercise: Please answer likewise for "COC(=O)[C@]1(C)N[C@H](CN(C)C(=O)c2ccc(C(C)(C)C)cc2)[C@@H]2C(=O)N(C)C(=O)[C@@H]21"
Key: no

Exercise: Please answer likewise for "Cc1ccc(/C=N/NC(=S)NC2CCCCC2)o1"
Key: no

Exercise: Please answer likewise for "Cc1nc(SCc2ccc(F)cc2)c([N+](=O)[O-])[nH]1"
Key: no

Exercise: Please answer likewise for COc1ccc(C(C[N+](=O)[O-])n2nc(C)cc2C)cc1 (stereo not drawn)
Key: yes

Exercise: Please answer likewise for "COc1cc2[nH]c(=O)n(Cc3ccc(C(=O)NC4CCN(Cc5ccccc5)CC4)cc3)c(=O)c2cc1OC"
Key: no

Exercise: Please answer likewise for "CCOc1cccc(-n2nnnc2-c2ccc(OC)cc2)c1"
Key: yes

Exercise: Please answer likewise for CC(=O)c1ccc(NC(=O)C(C)OC(=O)c2ccc(NS(=O)(=O)c3ccc4[nH]c(=O)[nH]c4c3)cc2)cc1 (stereo not drawn)
Key: no

Exercise: Please answer likewise for O=C(NCCC1CCCCN1S(=O)(=O)c1cccs1)C(=O)Nc1ccc(F)cc1F (stereo not drawn)
Key: yes

Exercise: Please answer likewise for Cc1ccc(SC(CC(=O)c2ccc(C(C)(C)C)cc2)C(=O)O)cc1 (stereo not drawn)
Key: yes

Exercise: Please answer likewise for "COC(=O)CC(CC(=O)OC)n1cccc1"
Key: no

Exercise: Please answer likewise for "O=C(NNC(=O)c1ccccc1O)c1ccccc1O"
Key: yes

Exercise: Please answer likewise for "Cc1c(NS(=O)(=O)c2cccc(C(=O)Nc3ccc(SC(F)F)cc3)c2)c(=O)n(-c2ccccc2)n1C"
Key: no

Exercise: Please answer likewise for "COc1cccc(NC(=O)CN(C)C(=O)/C=C/c2cn(-c3ccccc3)nc2-c2cccs2)c1"
Key: no

Exercise: Please answer likewise for COc1ccc(C(CCN(Cc2ccc(OC)c(OC)c2)C(=O)CCl)c2ccccc2)cc1 (stereo not drawn)
Key: yes

Exercise: Please answer likewise for "CCOc1cc(C=NNC(=O)CCCC(=O)NN=Cc2ccc(O)c(OCC)c2)ccc1O"
Key: no

Exercise: Please answer likewise for "CC(=O)Nc1ccc(OCC(=O)NCc2ccc(C)cc2)cc1"
Key: no

Exercise: Please answer likewise for "CCCCCOc1ccc(CSC2=NCCN2)cc1[N+](=O)[O-]"
Key: yes

Exercise: Please answer likewise for "CN1CCC(N(C)C(=O)c2ccc(Cl)c(S(=O)(=O)Nc3ccc(Cl)cc3)c2)CC1"
Key: no

Exercise: Please answer likewise for "c1ccc(-n2nnnc2-c2cccnc2)cc1"
Key: no

Exercise: Please answer likewise for COc1ccc(CCNC(=O)C(Sc2ccccn2)c2ccccc2)cc1OC (stereo not drawn)
Key: no

Exercise: Please answer likewise for "Cc1ccc(/C=N/NC(=S)Nc2cccc(S(=O)(=O)N(C)C)c2)o1"
Key: yes

Exercise: Please answer likewise for "C/C(CC(=O)NCc1ccc(Cl)cc1)=N\NC(=O)COc1ccc(C)cc1Br"
Key: yes

Exercise: Please answer likewise for "C[C@@H]1NS(=O)(=O)c2cc(Cl)ccc2O[C@@H]1c1ccccc1"
Key: no

Exercise: Please answer likewise for Cc1cn([C@H]2CC(F)[C@@H](CO)O2)c(=O)[nH]c1=O (stereo partly drawn)
Key: no

Exercise: Please answer likewise for "C[C@H]1CN([C@@H](C)CO)C(=O)Cc2cc(NS(C)(=O)=O)ccc2O[C@@H]1CN(C)CC1CC1"
Key: no

Exercise: Please answer likewise for "COc1ccc2oc(=O)cc(-c3cc4ccccc4o3)c2c1"
Key: no

Exercise: Please answer likewise for "Cc1ccc(C(=O)CSc2ccccc2C(=O)O)cc1"
Key: no

Exercise: Please answer likewise for O=C(CSc1ncnc2sccc12)NC1CCS(=O)(=O)C1 (stereo not drawn)
Key: no

Exercise: Please answer likewise for "O=C(Nc1ccc(O)cc1)c1ccccc1O"
Key: no

Exercise: Please answer likewise for "C/C(=N\Nc1cccc(C(=O)O)c1)c1ccc2c(c1)Nc1ccccc1S2"
Key: yes

Exercise: Please answer likewise for "COc1cc(C(=O)CCc2ccc3c(c2)OCO3)cc(OC)c1OC"
Key: no

Exercise: Please answer likewise for "CCN(CC)S(=O)(=O)c1ccc(N2CCCC2)c(NC(=O)c2ccc([N+](=O)[O-])o2)c1"
Key: yes

Exercise: Please answer likewise for "CCCOc1ccc(Cn2ccnc2)cc1[N+](=O)[O-]"
Key: no

Exercise: Please answer likewise for "N#CCc1c(C#N)c(N)nc(N2CCCC2)c1C#N"
Key: yes

Recorded values, source PubChem BioAssay AID624297.
